The reported numbers originate from ChEMBL document CHEMBL1961873.

Let's look at some compounds and their measured inhibition.
Biological target: Mitogen-activated protein kinase kinase kinase kinase 2 (Homo sapiens)
Settings: at 0.1 µM
Kindly provide the numeric value in % only, without the unit symbol.

COc1cc2c(cc1Nc1nc(Nc3ccsc3C(N)=O)c3cc[nH]c3n1)N(C(=O)CN(C)C)CCC2; 1.63

input: Find the measured inhibition: item `NC(=O)c1sc(-n2cnc3cc(C(F)(F)F)ccc32)cc1OCc1ccccc1Br` , target or system Mitogen-activated protein kinase kinase kinase kinase 2 (Homo sapiens).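 Note: values given as mean percent inhibition.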
output: 1.32

----------
Target: Discoidin domain-containing receptor 2 (Homo sapiens) (UniProt Q16832);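 note: reported values are mean percent inhibition of DDR2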
Sequence (Q16832 whole entry, the tested form may be a part): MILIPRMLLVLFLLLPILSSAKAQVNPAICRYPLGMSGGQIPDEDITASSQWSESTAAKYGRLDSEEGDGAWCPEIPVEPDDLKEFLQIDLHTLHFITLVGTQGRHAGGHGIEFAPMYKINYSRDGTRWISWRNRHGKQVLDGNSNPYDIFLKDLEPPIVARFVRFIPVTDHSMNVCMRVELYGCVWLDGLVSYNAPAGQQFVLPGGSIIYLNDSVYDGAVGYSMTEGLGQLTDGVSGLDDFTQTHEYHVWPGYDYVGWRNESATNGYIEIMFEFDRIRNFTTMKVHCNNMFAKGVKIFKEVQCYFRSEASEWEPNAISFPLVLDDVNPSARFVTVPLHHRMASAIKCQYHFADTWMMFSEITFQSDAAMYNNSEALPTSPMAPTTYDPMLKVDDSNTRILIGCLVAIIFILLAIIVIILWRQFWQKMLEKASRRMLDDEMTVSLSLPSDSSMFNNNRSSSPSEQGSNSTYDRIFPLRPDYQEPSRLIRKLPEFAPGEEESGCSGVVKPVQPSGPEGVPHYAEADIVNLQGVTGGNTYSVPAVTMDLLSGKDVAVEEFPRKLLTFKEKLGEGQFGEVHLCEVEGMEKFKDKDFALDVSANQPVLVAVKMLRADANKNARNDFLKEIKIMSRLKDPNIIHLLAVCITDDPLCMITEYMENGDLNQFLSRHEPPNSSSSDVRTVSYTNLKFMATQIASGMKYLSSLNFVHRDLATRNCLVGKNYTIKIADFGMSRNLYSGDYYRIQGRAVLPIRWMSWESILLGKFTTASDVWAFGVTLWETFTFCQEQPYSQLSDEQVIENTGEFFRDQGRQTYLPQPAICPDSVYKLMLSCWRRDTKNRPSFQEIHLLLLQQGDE
Conditions: at 0.1 µM
METRIC: inhibition

CCn1c(-c2nonc2N)nc2c(C#CC(C)(C)O)nc(O[C@@H](CN)c3ccccc3)cc21; -0.22%
Fc1ccc(-c2ncn(C3CCNCC3)c2-c2ccnc(Oc3ccccc3)n2)cc1; 1.18%
NS(=O)(=O)c1ccc(-c2ccc3c(NC(=O)C4CC4)n[nH]c3c2)cc1; 0.39%

input: Recorded inhibition of `Nc1nonc1-c1nc2cnccc2n1C1CCCCC1` , please.
output: 0.11%

input: Same question for `CCn1c(-c2nonc2N)nc2c(C#CC(C)(C)O)ncc(OCC3CCNCC3)c21` please.
output: -0.24%

input: Also `COc1cc2c(cc1Nc1nc(Nc3ccsc3C(N)=O)c3cc[nH]c3n1)N(C(=O)CN(C)C)CCC2` ?
output: 2.81%

input: Follow-up item: `COc1cccc(COc2cc(-n3cnc4ccccc43)sc2C(N)=O)c1`
output: -1.78%

input: Cool, now `COc1cc(C=NNc2ncnc3c2cnn3Cc2ccccc2)ccc1O`
output: -0.76%

input: And for `NS(=O)(=O)c1ccc(N/C=C2\C(=O)Nc3ccc4ncsc4c32)cc1` ?
output: 1.19%

----------
Biological target: Serine/threonine-protein kinase Sgk2 (Homo sapiens);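 note: each value is a mean percent inhibition of SGK2 from the GSK PKIS kinase screen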
Sequence (whole entry): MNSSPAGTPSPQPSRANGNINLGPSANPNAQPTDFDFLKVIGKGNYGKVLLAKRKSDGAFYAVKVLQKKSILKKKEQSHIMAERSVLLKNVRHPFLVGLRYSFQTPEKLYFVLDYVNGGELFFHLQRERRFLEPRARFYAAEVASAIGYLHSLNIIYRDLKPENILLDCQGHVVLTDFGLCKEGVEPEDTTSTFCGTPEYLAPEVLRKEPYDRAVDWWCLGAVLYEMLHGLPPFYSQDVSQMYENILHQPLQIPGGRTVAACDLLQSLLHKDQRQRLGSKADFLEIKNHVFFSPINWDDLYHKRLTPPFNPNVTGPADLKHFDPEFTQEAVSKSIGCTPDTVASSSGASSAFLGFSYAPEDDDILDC
Details: at 0.1 µM
# inhibition listing for each entry below
Value expressed in %; do not type the unit.

Cc1cc(-c2ccco2)cc(C)c1/C=C/c1cncc(-c2nn[nH]n2)c1; -0.62

input: Recorded inhibition for `CCn1c(-c2nonc2N)nc2c(C#CCN)ncc(OCCCN)c21` with Serine/threonine-protein kinase Sgk2 (Homo sapiens), please?
output: -0.28

input: Entry to check: `CCn1c(-c2nonc2N)nc2c(C#CC(C)(C)O)ncc(OC[C@@H]3CCCN3)c21`
output: 3.27

input: Would you mind doing `CCn1c(-c2nonc2N)nc2c(C#CC(C)(C)O)ncc(OCC3CCNCC3)c21` as well?
output: 2.67

input: # repeat for `COc1cc(C=NNc2ncnc3c2cnn3Cc2ccccc2)ccc1O`
output: -3

input: # iterate: `Nc1nonc1-c1nc2cnccc2n1C1CCCCC1`
output: 5.9

input: And then `CCn1c(-c2nonc2N)nc2c(C#CC(C)(C)O)nc(O[C@@H](CN)c3ccccc3)cc21` , what is it?
output: 5.31

input: One more compound: `NC(=O)c1sc(-n2cnc3cc(C(F)(F)F)ccc32)cc1OCc1ccccc1Br`
output: 0.68
